The reported numbers originate from PubChem BioAssay (NCI).

Assay Explanation: NCI Yeast Anticancer Drug Screen. Data for the mec2-1 strain (AID 157)
Assay Context: S. cerevisiae mec2-1 strain, at 50.0 µM, stronger effect = higher value
This is part of a sample that, as a whole, favours compounds with a hit. Of some 79,000 tested, about 15% had one in any assay.
Please note: 1 applies when growth inhibition is -20% or greater, and 0 applies otherwise.

{"columns": ["Molecule", "Category"],
 "data": [
  ["O=C(NC(CO)C(O)c1ccc([N+](=O)[O-])cc1)C(Cl)Cl (stereo unspecified)", 0],
  ["COc1cc2c(c3c1c(=O)c1ccccc1n3C)C=C([N+](=O)[O-])C(C)(C)O2", 0],
  ["Cn1c2c(c3ccccc3c1=O)C(=O)c1ccccc1-2", 1],
  ["Cc1ccc(CNc2cccc([N+](=O)[O-])c2)cc1", 1],
  ["CC1=CC(=O)c2ccc(C)cc2C1=O", 0]
]}

Prompt line: Quick check: does CC(C)CC(Br)C(=O)NC(CC(C)C)C(=O)O (stereo unspecified) have growth inhibition greater than or equal to -20%?
Response line: 0

Prompt line: Quick check: does `COc1ccc(/C=c2\[nH]c3nc(=O)c(N4CCOCC4)c(N)n3c2=O)cc1` have growth inhibition greater than or equal to -20%?
Response line: 1

Prompt line: Quick check: does `COc1cc(C2N(c3ccccc3)CCN2c2ccccc2)cc(OC)c1OC` have growth inhibition greater than or equal to -20%?
Response line: 1

Prompt line: Quick check: does CCC(C)C1(O)OC2CC3(C)OC(=CC3=O)/C(C)=C\C3OC(=O)C1(C)C32 (stereo unspecified) have growth inhibition greater than or equal to -20%?
Response line: 0

Prompt line: Quick check: does `O=C(N/N=C/c1ccc2c(c1)CCC2)c1cccc([N+](=O)[O-])c1` have growth inhibition greater than or equal to -20%?
Response line: 0
